Test system: HCC-2998 colon
method-summary: NCI-60 one-dose screen, 48 h
particulars: 10 µM unless noted
Compounds without any hit were thinned out: in the full panel of roughly 83,000, 20% have a hit. Calls of active or inactive are those of the source. The calls were made as follows: active = growth percent below 10; inactive = the rest.
Field 'call' accepts active, inactive

Query: Which outcome did this test record for the compound CN1CCC(CN2c3ccccc3Sc3ccccc32)C1 (stereo not given) ?
Result: inactive

Query: What would you report for `CCc1cccc(CC)c1N1C(=O)C=CC1=O` ?
Result: inactive

Query: What would you report for `O=C1c2ccccc2Cc2cccc(Cl)c21` ?
Result: inactive

Query: What would you report for O=[N+]([O-])CC(O)c1ccccc1 (stereo not given) ?
Result: inactive

Query: What would you report for O=C(c1ccccc1)C(O)C(Br)(CBr)c1ccccc1 (stereo not given) ?
Result: inactive

Query: What would you report for `Nc1nc(-c2ccccc2)nc(N)c1N=O` ?
Result: inactive

Query: What would you report for `O=C(Cc1nc2cc(Cl)c(Cl)cc2nc1CC(=O)c1cccnc1)c1cccnc1` ?
Result: inactive

Query: What would you report for `Fc1ccc(NCCS)cc1` ?
Result: inactive

Query: What would you report for `CCCCOS(=O)(=O)c1ccccc1` ?
Result: inactive

Query: What would you report for CCCCCCCCCCCC[S+](C)CC(=O)[O-] (stereo not given) ?
Result: inactive

Query: What would you report for `O=C1C=CC(=O)N1c1ccccc1` ?
Result: inactive

Query: What would you report for `O=[N+]([O-])c1ccc(N2CCN(Cc3ccccc3)CC2)c2c1no[n+]2[O-]` ?
Result: active

Query: What would you report for `Nc1cccc2cccc([N+](=O)[O-])c12` ?
Result: inactive

Query: What would you report for `O=[N+]([O-])c1ccc(C(Br)c2ccc([N+](=O)[O-])cc2)cc1` ?
Result: inactive

Query: What would you report for `c1ccc(-c2cccc(-c3ccccn3)n2)nc1` ?
Result: inactive

Query: What would you report for `O=S(=O)(O)c1cnccn1` ?
Result: inactive

Query: What would you report for CCCCCCCCCCCC(=O)OC(C)C(=O)NCCCC (stereo not given) ?
Result: inactive

Query: What would you report for `Cc1cc(C(=O)c2ccc(Cl)cc2)ccc1O` ?
Result: inactive

Query: What would you report for `O=C(/C(Cl)=N/O)c1ccc(-c2ccccc2)cc1` ?
Result: inactive

Query: What would you report for `Cc1cc(I)nc2ccccc12` ?
Result: inactive

Query: What would you report for `CCOc1cc(F)c([N+](=O)[O-])cc1[N+](=O)[O-]` ?
Result: inactive

Query: What would you report for `Cc1ccc(N2C(=O)C=CC2=O)cc1` ?
Result: inactive

Query: What would you report for `O=C(O)c1cccc2cccc(-c3c4ccc(=O)c(O)c-4oc4c(O)c(O)ccc34)c12` ?
Result: inactive

Query: What would you report for `O=C1C=CC(=O)N1C1CCCCCCCCCCC1` ?
Result: inactive

Query: What would you report for CCCCCCCCCCCC1N=C(N)N=C(N)N1c1cccc(Br)c1 (stereo not given) ?
Result: active

Query: What would you report for `CCCCCCCCCCCCCCCCCC1=NCCCN1CCO` ?
Result: inactive

Query: What would you report for `CC1=CC(=NC(=O)CBr)C=C/C1=N\S(=O)(=O)c1ccccc1` ?
Result: inactive

Query: What would you report for `CN(Cc1ccccc1)c1ccc(SC#N)cc1` ?
Result: inactive

Query: What would you report for `COc1cc(-c2ccc(-[n+]3nc(-c4ccc([N+](=O)[O-])cc4)nn3-c3ccc([N+](=O)[O-])cc3)c(OC)c2)ccc1-[n+]1nc(-c2ccc([N+](=O)[O-])cc2)nn1-c1ccc([N+](=O)[O-])cc1` ?
Result: inactive

Query: What would you report for CCCCCCCCCCCCCCCCCC[S+](C)CC (stereo not given) ?
Result: inactive

Query: What would you report for `NCCCN(CCCN)CCCNCc1c2ccccc2c(CNCCCN(CCCN)CCCN)c2ccccc12` ?
Result: inactive

Query: What would you report for `O=C1C=CC(O)=CC1=P(c1ccccc1)(c1ccccc1)c1ccccc1` ?
Result: active

Query: What would you report for `Cc1ccc2c(c1)sc(-c1ccc(N(C)C)cc1)[n+]2C` ?
Result: active

Query: What would you report for `c1ccc2sc(SSN3CC4CCC(CC4)C3)nc2c1` ?
Result: inactive

Query: What would you report for `Oc1ccc(Br)cc1Sc1cc(Br)ccc1O` ?
Result: inactive

Query: What would you report for `O=C/C=C/c1ccc([N+](=O)[O-])cc1` ?
Result: inactive

Query: What would you report for `Cc1c(O)ccc(SC#N)c1C` ?
Result: inactive

Query: What would you report for `CC(C)(C)c1ccc(CCO)cc1` ?
Result: inactive

Query: What would you report for `O=C1C=CC(=O)c2c(O)c(CO)c(CO)c(O)c21` ?
Result: inactive

Query: What would you report for `CN(C)c1ccc(C(C#N)(c2ccccc2)c2ccc(N(C)C)cc2)cc1` ?
Result: inactive

Query: What would you report for `CC(C)(C)c1ccc(O)c(Br)c1` ?
Result: inactive

Query: What would you report for `CC1(C)CCCC2=C1C(=O)N(SC(Cl)(Cl)Cl)C2=O` ?
Result: inactive

Query: What would you report for `NNc1ccc(Cl)cc1Cl` ?
Result: inactive

Query: What would you report for `CC(=O)c1ccc2c(c1)CCc1ccccc1-2` ?
Result: inactive

Query: What would you report for COc1ccc(C(Cn2ccnc2)Sc2ccc(Cl)c(Cl)c2)cc1 (stereo not given) ?
Result: inactive

Query: What would you report for CCN(CC)CC(O)c1cc(-c2ccc(Cl)cc2)nc2cc(Cl)ccc12 (stereo not given) ?
Result: inactive

Query: What would you report for `CCOC(=O)c1c(C)[nH]c2ccc(O)cc12` ?
Result: inactive

Query: What would you report for CCCCCC/C=C1\CCC(CN2CCCC2)C1=O (stereo not given) ?
Result: inactive

Query: What would you report for COc1ccc(C(OCC2OC(n3ccc(NC(=O)c4ccccc4)nc3=O)C(O)C2O)(c2ccccc2)c2ccccc2)cc1 (stereo not given) ?
Result: inactive

Query: What would you report for `Nc1nc(N)c2cc(Sc3cccc(C(F)(F)F)c3)ccc2n1` ?
Result: active

Measured values drawn from PubChem BioAssay (NCI) for this set.
